Quick reference: MIC of the listed items.
# Tested on: Klebsiella pneumoniae
# PROTOCOL SUMMARY: Antibacterial activity against Klebsiella pneumoniae ATCC 10031 by micro-broth dilution method
# Type: functional
# value in µg/mL; strip the unit string

# example entries with known answers
COc1c(N2CCc3sc([N+](=O)[O-])cc3C2)c(F)cc2c(=O)c(C(=O)O)cn(C3CC3)c12; 0.25
Nc1c(F)c(N2CCc3sccc3C2)c(F)c2c1c(=O)c(C(=O)O)cn2C1CC1; 4
COc1c(N2CCc3sccc3C2)c(F)cc2c(=O)c(C(=O)O)cn(C3CC3)c12; 0.25

Name the recorded MIC for O=C(O)c1cn(C2CC2)c2c(F)c(N3CCc4sccc4C3)c(F)c(F)c2c1=O .
8

Name the recorded MIC for COc1c(N2CCc3sc(COC(C)=O)cc3C2)c(F)cc2c(=O)c(C(=O)O)cn(C3CC3)c12 .
2

---

Quick reference: MIC of the listed items.
# Tested on: Staphylococcus aureus
# PROTOCOL SUMMARY: Antibacterial activity against linezolid-resistant Staphylococcus aureus NRS 119 by microbroth dilution method
# Assay type: functional
# value in µg/mL; strip the unit string

# example entries with known answers
COc1c(N2CCNC(C)C2)c(F)cc2c(=O)c(C(=O)O)cn(C3CC3)c12 (centres undefined) [GATIFLOXACIN]; 4
C[C@@H]1CN(c2c(F)c(N)c3c(=O)c(C(=O)O)cn(C4CC4)c3c2F)C[C@H](C)N1 [SPARFLOXACIN]; 16
COc1c(N2CCc3sc(CO)cc3C2)c(F)cc2c(=O)c(C(=O)O)cn(C3CC3)c12; 0.5

// moving on: another record for MIC
Name the recorded MIC for COc1c(N2CCc3sc(COC(C)=O)cc3C2)c(F)cc2c(=O)c(C(=O)O)cn(C3CC3)c12 .
2

---

# Test system: Escherichia coli
# PROTOCOL SUMMARY: Antibacterial activity against Escherichia coli ATCC 25922 by micro-broth dilution method
# Assay type: functional
Cut-off 0.5 µg/mL on MIC: below means True, at or above means False.

Record excerpt, results attached:
O=C(O)c1cn(C2CC2)c2cc(N3CCc4sc(Br)cc4C3)c(F)cc2c1=O; False
COc1c(N2CCc3sccc3C2)c(F)c([N+](=O)[O-])c2c(=O)c(C(=O)O)cn(C3CC3)c12; False
COc1c(N2CCc3sc(C(=O)O)cc3C2)c(F)cc2c(=O)c(C(=O)O)cn(C3CC3)c12; False

Regarding Nc1c(F)c(N2CCc3sccc3C2)c(F)c2c1c(=O)c(C(=O)O)cn2C1CC1 , kindly confirm whether its MIC is beneath 0.5 µg/mL.
True

Regarding COc1c(N2CCNC(C)C2)c(F)cc2c(=O)c(C(=O)O)cn(C3CC3)c12 (stereo unspecified) , kindly confirm whether its MIC is beneath 0.5 µg/mL.
True

Regarding COc1c(N2CCc3sc(Br)cc3C2)c(F)cc2c(=O)c(C(=O)O)cn(C3CC3)c12 , kindly confirm whether its MIC is beneath 0.5 µg/mL.
False

Regarding O=C(O)c1cn(C2CC2)c2cc(N3CCc4sccc4C3)c(F)cc2c1=O , kindly confirm whether its MIC is beneath 0.5 µg/mL.
True

Regarding COc1c(N2CCc3sc(CO)cc3C2)c(F)cc2c(=O)c(C(=O)O)cn(C3CC3)c12 , kindly confirm whether its MIC is beneath 0.5 µg/mL.
True

Regarding COc1c(N2CCc3sc(C=O)cc3C2)c(F)cc2c(=O)c(C(=O)O)cn(C3CC3)c12 , kindly confirm whether its MIC is beneath 0.5 µg/mL.
True

Regarding CC(=O)Nc1c(F)c(N2CCc3sccc3C2)c(F)c2c1c(=O)c(C(=O)O)cn2C1CC1 , kindly confirm whether its MIC is beneath 0.5 µg/mL.
False

Regarding O=C(O)c1cn(C2CC2)c2cc(N3CCNCC3)c(F)cc2c1=O , kindly confirm whether its MIC is beneath 0.5 µg/mL.
True

Regarding Nc1c(F)c(N2CCc3sc(Br)cc3C2)c(F)c2c1c(=O)c(C(=O)O)cn2C1CC1 , kindly confirm whether its MIC is beneath 0.5 µg/mL.
False

Regarding COc1c(N2CCc3sccc3C2)c(F)cc2c(=O)c(C(=O)O)cn(C3CC3)c12 , kindly confirm whether its MIC is beneath 0.5 µg/mL.
True

---

# System: Staphylococcus epidermidis
# PROTOCOL SUMMARY: Antibacterial activity against Staphylococcus epidermidis ATCC 12228 by micro-broth dilution method
# Type: functional
PARAMETER MEASURED: MIC

# example entries with known answers
COc1c(N2CCc3sc(CO)cc3C2)c(F)cc2c(=O)c(C(=O)O)cn(C3CC3)c12; > 16 µg/mL
COc1c(N2CCNC(C)C2)c(F)cc2c(=O)c(C(=O)O)cn(C3CC3)c12 (stereo not drawn); 0.25 µg/mL
COc1c(N2CCc3sc(Br)cc3C2)c(F)cc2c(=O)c(C(=O)O)cn(C3CC3)c12; ≤ 0.12 µg/mL
O=C(O)c1cn(C2CC2)c2cc(N3CCc4sc(Br)cc4C3)c(F)cc2c1=O; 0.5 µg/mL
COc1c(N2CCc3sccc3C2)c(F)cc2c(=O)c(C(=O)O)cn(C3CC3)c12; > 16 µg/mL
COc1c(N2CCc3sccc3C2)c(F)c([N+](=O)[O-])c2c(=O)c(C(=O)O)cn(C3CC3)c12; 2 µg/mL

Name the recorded MIC for Nc1c(F)c(N2CCc3sc(Br)cc3C2)c(F)c2c1c(=O)c(C(=O)O)cn2C1CC1 .
> 16 µg/mL

Name the recorded MIC for COc1c(N2CCc3sc(COC(C)=O)cc3C2)c(F)cc2c(=O)c(C(=O)O)cn(C3CC3)c12 .
≤ 0.12 µg/mL

---

# System: Klebsiella pneumoniae
# PROTOCOL SUMMARY: Antibacterial activity against Klebsiella pneumoniae ATCC 10031 by micro-broth dilution method
# Format: functional
Quick reference: MIC of the listed items.

# example entries with known answers
COc1c(N2CCc3sc(CO)cc3C2)c(F)cc2c(=O)c(C(=O)O)cn(C3CC3)c12; ≤ 0.12 µg/mL
CC(=O)Nc1c(F)c(N2CCc3sccc3C2)c(F)c2c1c(=O)c(C(=O)O)cn2C1CC1; > 16 µg/mL
COc1c(N2CCc3sc(C=O)cc3C2)c(F)cc2c(=O)c(C(=O)O)cn(C3CC3)c12; ≤ 0.12 µg/mL
COc1c(N2CCNC(C)C2)c(F)cc2c(=O)c(C(=O)O)cn(C3CC3)c12 (stereo unspecified); ≤ 0.12 µg/mL
Nc1c(F)c(N2CCc3sc(Br)cc3C2)c(F)c2c1c(=O)c(C(=O)O)cn2C1CC1; > 16 µg/mL

Name the recorded MIC for O=C(O)c1cn(C2CC2)c2cc(N3CCNCC3)c(F)cc2c1=O .
≤ 0.12 µg/mL

Name the recorded MIC for O=C(O)c1cn(C2CC2)c2cc(N3CCc4sccc4C3)c(F)cc2c1=O .
≤ 0.12 µg/mL

Name the recorded MIC for COc1c(N2CCc3sc(C(=O)O)cc3C2)c(F)cc2c(=O)c(C(=O)O)cn(C3CC3)c12 .
2 µg/mL

Name the recorded MIC for C[C@@H]1CN(c2c(F)c(N)c3c(=O)c(C(=O)O)cn(C4CC4)c3c2F)C[C@H](C)N1 .
≤ 0.12 µg/mL

Name the recorded MIC for COc1c(N2CCc3sc(Br)cc3C2)c(F)cc2c(=O)c(C(=O)O)cn(C3CC3)c12 .
4 µg/mL

Name the recorded MIC for O=C(O)c1cn(C2CC2)c2cc(N3CCc4sc(Br)cc4C3)c(F)cc2c1=O .
2 µg/mL

---

# System: Staphylococcus aureus
# PROTOCOL SUMMARY: Antibacterial activity against linezolid-resistant Staphylococcus aureus NRS 119 by microbroth dilution method
# Assay type: functional
Quick reference: MIC of the listed items.

# example entries with known answers
O=C(O)c1cn(C2CC2)c2cc(N3CCc4sc(Br)cc4C3)c(F)cc2c1=O; > 16 µg/mL
COc1c(N2CCc3sccc3C2)c(F)cc2c(=O)c(C(=O)O)cn(C3CC3)c12; > 16 µg/mL
COc1c(N2CCc3sc(C=O)cc3C2)c(F)cc2c(=O)c(C(=O)O)cn(C3CC3)c12; ≤ 0.12 µg/mL
O=C(O)c1cn(C2CC2)c2cc(N3CCNCC3)c(F)cc2c1=O [CIPROFLOXACIN]; > 16 µg/mL

// moving on: another record for MIC
Name the recorded MIC for COc1c(N2CCc3sc([N+](=O)[O-])cc3C2)c(F)cc2c(=O)c(C(=O)O)cn(C3CC3)c12 .
> 16 µg/mL

---

# Tested on: Escherichia coli
# PROTOCOL SUMMARY: Antibacterial activity against Escherichia coli ATCC 25922 by micro-broth dilution method
# Assay type: functional
PARAMETER MEASURED: MIC (µg/mL)
# value in µg/mL; strip the unit string

O=C(O)c1cn(C2CC2)c2c(F)c(N3CCc4sccc4C3)c(F)c(F)c2c1=O; 0.5
COc1c(N2CCc3sc([N+](=O)[O-])cc3C2)c(F)cc2c(=O)c(C(=O)O)cn(C3CC3)c12; 0.5

// moving on: another record for MIC
Name the recorded MIC for COc1c(N2CCc3sc(COC(C)=O)cc3C2)c(F)cc2c(=O)c(C(=O)O)cn(C3CC3)c12 .
0.5
